Overview of reported IC50 across a group of molecules:
molecular target: UniProt P00533; assay: Enzymologic experiment of wild-type (WT) EGFR (TR-FRET); format: biochemical; settings: ATP 0.1 to 5 uM
Express it in nM; write the number only.

The following molecules have reported results that may help.
chemical_structure	unit_string	IC50
C=CC(=O)Nc1cc(Nc2nccc(-n3ncc4ccc(OC)cc43)n2)c(OC)cc1N(C)CCN1CCCC1	nM	4.33
C=CC(=O)Nc1cc(Nc2ncc(C(F)(F)F)c(-c3cn(C)c4cc(OC)ccc34)n2)c(OC)cc1N(C)CCN(C)C	nM	5.01
C=CC(=O)Nc1cc(Nc2nccc(-c3cn(CCO)c4ccccc34)n2)c(OC(F)F)cc1N(C)CCN(C)C	nM	1.54
C=CC(=O)Nc1cc(Nc2nccc(-c3cn(C)c4ccccc34)n2)c(OC(F)F)cc1N1CCN(C)CC1	nM	143
C=CC(=O)Nc1cc(Nc2nccc(-c3c[nH]c4c(OC)cccc34)n2)c(OC)cc1N(C)CCN(C)C	nM	1.26

Ask | Name the recorded IC50 for C=CC(=O)Nc1cc(Nc2nccc(-c3cn(S(=O)(=O)N(C)C)c4ccccc34)n2)c(OC)cc1N(C)CCN1CCCC1 .
Reply | 1.8

Ask | Name the recorded IC50 for C#CCn1cc(-c2ccnc(Nc3cc(NC(=O)C=C)c(N(C)CCNC)cc3OC)n2)c2ccccc21 .
Reply | 13.7

Ask | Name the recorded IC50 for C=CC(=O)Nc1cc(Nc2nccc(-c3cn(C)c4ccccc34)n2)c(OC(F)F)cc1N(C)CCN(C)C .
Reply | 2

Ask | Name the recorded IC50 for C=CC(=O)Nc1cc(Nc2ncc(C(F)(F)F)c(-n3ncc4cc(C#N)ccc43)n2)c(OC)cc1N(C)CCN(C)C .
Reply | 116

Ask | Name the recorded IC50 for C=CC(=O)Nc1cc(Nc2nccc(-n3ncc4cc(OCC)ccc43)n2)c(OC)cc1N(C)CCN1CCCC1 .
Reply | 7.49

Ask | Name the recorded IC50 for C=CC(=O)Nc1cc(Nc2nccc(-n3nc(C)c4cc(C#N)ccc43)n2)c(OC)cc1N(C)CCN(C)C .
Reply | 16.3

Ask | Name the recorded IC50 for C=CC(=O)Nc1cc(Nc2ncc(Cl)c(-n3nc(CC)c4cc(C#N)ccc43)n2)c(OC)cc1N(C)CCN(C)C .
Reply | 27.9

----------
molecular target: wild-type EGFR enzyme (Homo sapiens); assay: Enzymologic experiment of wild-type (WT) EGFR (TR-FRET); type: biochemical; conditions: ATP 0.1 to 5 uM
Overview of reported log10 IC50 across a group of compounds:
Note: values are log10 of IC50 expressed in nM.

The following compounds have reported results that may help.
compound	measured_quantity	numeric_value
C=CC(=O)Nc1cc(Nc2ncc(C(F)(F)F)c(-n3nc(OC)c4cc(Cl)ccc43)n2)c(OC)cc1N(C)CCN(C)C	log10 IC50	2.59
C=CCn1cc(-c2ccnc(Nc3cc(NC(=O)C=C)c(N(C)CCN(C)C)cc3OC)n2)c2ccccc21	log10 IC50	0.82
C=CC(=O)Nc1cc(Nc2nccc(-c3cn(C)c4ccc(OC)cc34)n2)c(OC)cc1N(C)CCN(C)C	log10 IC50	0.60

Ask | Form field: log10 IC50 recorded for C=CC(=O)Nc1cc(Nc2nccc(-n3ncc4cc(OC)ccc43)n2)c(OC)cc1N(C)CCN(C)C with wild-type EGFR enzyme (Homo sapiens) (enter value)
Reply | 0.58

Ask | Form field: log10 IC50 recorded for C=CC(=O)Nc1cc(Nc2nccc(-c3cn(C)c4cc(OC)ccc34)n2)c(OC)cc1N(C)CCNC with wild-type EGFR enzyme (Homo sapiens) (enter value)
Reply | 0.36

Ask | Form field: log10 IC50 recorded for C=CC(=O)Nc1cc(Nc2nccc(-n3nc(C4CC4)c4ccccc43)n2)c(OC)cc1N(C)CCN(C)C [Example 111] with wild-type EGFR enzyme (Homo sapiens) (enter value)
Reply | 0.44

Ask | Form field: log10 IC50 recorded for C=CC(=O)Nc1cc(Nc2nccc(-n3ncc4ccccc43)n2)c(OC)cc1N(C)CCN(C)C with wild-type EGFR enzyme (Homo sapiens) (enter value)
Reply | 0.53

----------
molecular target: wild-type EGFR enzyme (Homo sapiens, UniProt P00533); test: Enzymologic experiment of wild-type (WT) EGFR (TR-FRET); assay type: biochemical; settings: ATP 0.1 to 5 uM
Sequence (P00533 25-1210): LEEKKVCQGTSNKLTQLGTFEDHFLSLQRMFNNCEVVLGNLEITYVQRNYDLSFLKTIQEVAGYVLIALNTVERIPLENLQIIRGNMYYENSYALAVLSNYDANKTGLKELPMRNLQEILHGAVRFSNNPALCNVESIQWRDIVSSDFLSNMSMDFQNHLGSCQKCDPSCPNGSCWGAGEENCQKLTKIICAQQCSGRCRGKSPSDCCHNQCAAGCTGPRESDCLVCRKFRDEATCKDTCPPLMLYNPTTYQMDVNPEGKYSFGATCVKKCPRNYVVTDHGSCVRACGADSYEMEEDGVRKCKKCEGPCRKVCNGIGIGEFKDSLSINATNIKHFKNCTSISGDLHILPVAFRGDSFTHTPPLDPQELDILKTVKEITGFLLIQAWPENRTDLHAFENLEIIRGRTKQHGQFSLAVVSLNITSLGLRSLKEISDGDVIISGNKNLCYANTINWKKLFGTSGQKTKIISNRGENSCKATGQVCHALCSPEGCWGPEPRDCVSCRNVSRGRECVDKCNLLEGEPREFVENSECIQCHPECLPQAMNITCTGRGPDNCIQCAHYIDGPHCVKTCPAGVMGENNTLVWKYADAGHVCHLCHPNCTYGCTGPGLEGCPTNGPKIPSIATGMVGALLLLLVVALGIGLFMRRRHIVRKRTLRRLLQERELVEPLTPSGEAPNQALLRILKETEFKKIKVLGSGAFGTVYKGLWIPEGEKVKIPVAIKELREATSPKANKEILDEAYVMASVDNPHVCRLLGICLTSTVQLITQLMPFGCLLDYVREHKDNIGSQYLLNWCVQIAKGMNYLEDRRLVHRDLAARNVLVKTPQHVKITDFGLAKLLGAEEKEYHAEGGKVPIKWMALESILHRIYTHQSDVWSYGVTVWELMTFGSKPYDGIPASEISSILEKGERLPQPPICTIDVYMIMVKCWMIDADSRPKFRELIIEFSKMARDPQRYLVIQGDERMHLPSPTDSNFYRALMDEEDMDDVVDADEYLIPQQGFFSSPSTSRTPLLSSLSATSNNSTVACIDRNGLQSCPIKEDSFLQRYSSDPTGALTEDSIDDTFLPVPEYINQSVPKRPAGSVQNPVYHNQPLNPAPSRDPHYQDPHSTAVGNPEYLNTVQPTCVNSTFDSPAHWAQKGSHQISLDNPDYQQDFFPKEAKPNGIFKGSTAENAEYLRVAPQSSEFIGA
Response field label takes satisfied when IC50 is strictly below 6 nM and not satisfied in all other cases.

compound	assigned_class
C=CC(=O)Nc1cc(Nc2ncc(Cl)c(-n3nc(CCC)c4cc(C#N)ccc43)n2)c(OC)cc1N(C)CCN(C)C [Example 116]	not satisfied

Ask | Lab log: compare recorded IC50 with 6 nM; is it strictly lower for C=CC(=O)Nc1cc(Nc2nccc(-c3cn(C)c4cc(C=C)ccc34)n2)c(OC)cc1N(C)CCN(C)C [Example 96] ?
Reply | not satisfied

Ask | Lab log: compare recorded IC50 with 6 nM; is it strictly lower for C=CC(=O)Nc1cc(Nc2nccc(-c3c[nH]c4cc(OC)ccc34)n2)c(OC)cc1N(C)CCN(C)C [Example 97] ?
Reply | satisfied

Ask | Lab log: compare recorded IC50 with 6 nM; is it strictly lower for C=CC(=O)Nc1cc(Nc2nccc(-c3c[nH]c4ccccc34)n2)c(OC(F)F)cc1N(C)CCN(C)C [Example 8] ?
Reply | satisfied

Ask | Lab log: compare recorded IC50 with 6 nM; is it strictly lower for C=CC(=O)Nc1cc(Nc2nccc(-n3ncc4c(OC)cccc43)n2)c(OC)cc1N(C)CCN(C)C [Example 41] ?
Reply | satisfied

Ask | Lab log: compare recorded IC50 with 6 nM; is it strictly lower for C=CC(=O)Nc1cc(Nc2nccc(-c3nn(C4CC4)c4ccccc34)n2)c(OC)cc1N(C)CCN(C)C [Example 119] ?
Reply | satisfied

Ask | Lab log: compare recorded IC50 with 6 nM; is it strictly lower for C=CC(=O)Nc1cc(Nc2nccc(-n3ncc4cc(C#N)ccc43)n2)c(OC)cc1N(C)CCN(C)C [Example 50] ?
Reply | not satisfied

----------
target: exon 20 T790M mutant-type EGFR enzyme (Homo sapiens, UniProt P00533, T790M); experiment: Enzymologic experiment of T790M mutant-type EGFR (TR-FRET); assay type: biochemical; conditions: T790M EGFR enzyme, TR-FRET, ATP 1 to 10 uM
Sequence (P00533 25-1210 T790M): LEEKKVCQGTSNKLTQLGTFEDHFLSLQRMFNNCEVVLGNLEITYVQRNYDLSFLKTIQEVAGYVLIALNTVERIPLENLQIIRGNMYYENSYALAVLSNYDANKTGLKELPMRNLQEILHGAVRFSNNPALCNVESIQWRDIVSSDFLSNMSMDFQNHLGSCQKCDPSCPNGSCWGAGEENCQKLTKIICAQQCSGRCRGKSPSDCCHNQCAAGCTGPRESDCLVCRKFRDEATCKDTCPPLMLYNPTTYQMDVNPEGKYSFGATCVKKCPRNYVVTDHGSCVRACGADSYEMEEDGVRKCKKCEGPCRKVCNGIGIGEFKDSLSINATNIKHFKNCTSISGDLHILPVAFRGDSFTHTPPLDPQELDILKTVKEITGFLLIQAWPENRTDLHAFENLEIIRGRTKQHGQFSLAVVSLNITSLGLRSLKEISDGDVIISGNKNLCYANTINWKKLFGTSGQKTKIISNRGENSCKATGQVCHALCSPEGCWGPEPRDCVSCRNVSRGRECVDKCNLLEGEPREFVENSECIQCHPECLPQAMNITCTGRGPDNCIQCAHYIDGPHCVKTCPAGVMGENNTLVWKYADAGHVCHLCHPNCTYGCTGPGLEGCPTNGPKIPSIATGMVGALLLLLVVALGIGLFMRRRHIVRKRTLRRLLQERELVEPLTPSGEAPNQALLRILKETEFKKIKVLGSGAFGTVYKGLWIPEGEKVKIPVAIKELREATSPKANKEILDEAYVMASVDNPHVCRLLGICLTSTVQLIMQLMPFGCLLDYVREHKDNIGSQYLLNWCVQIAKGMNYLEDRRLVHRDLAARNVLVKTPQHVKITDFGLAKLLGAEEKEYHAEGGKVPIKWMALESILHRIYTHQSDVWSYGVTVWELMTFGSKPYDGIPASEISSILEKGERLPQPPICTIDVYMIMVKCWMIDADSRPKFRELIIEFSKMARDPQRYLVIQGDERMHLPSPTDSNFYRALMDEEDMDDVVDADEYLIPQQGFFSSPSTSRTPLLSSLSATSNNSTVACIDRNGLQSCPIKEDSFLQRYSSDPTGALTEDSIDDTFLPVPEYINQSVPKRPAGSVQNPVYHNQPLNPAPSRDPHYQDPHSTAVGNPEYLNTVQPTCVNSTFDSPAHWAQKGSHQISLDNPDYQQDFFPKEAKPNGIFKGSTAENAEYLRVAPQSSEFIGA
Overview of reported IC50 across a group of molecules:
# output: number + unit

chemical_structure	IC50
C=CC(=O)Nc1cc(Nc2nccc(-n3ncc4cc(C5CC5)ccc43)n2)c(OC)cc1N(C)CCN(C)C	41.4 nM

Ask | Name the recorded IC50 for C=CC(=O)Nc1cc(Nc2nccc(-n3ncc4cc(OCC)ccc43)n2)c(OC)cc1N(C)CCN1CCCC1 .
Reply | 0.69 nM

Ask | Name the recorded IC50 for C=CC(=O)Nc1cc(Nc2ncc(C(F)(F)F)c(-n3ncc4cc(C#N)ccc43)n2)c(OC)cc1N(C)CCN(C)C .
Reply | 1.08 nM

Ask | Name the recorded IC50 for C=CC(=O)Nc1cc(Nc2nccc(-n3ncc4cc(OCCOC)ccc43)n2)c(OC)cc1N(C)CCN(C)C .
Reply | 0.4 nM

Ask | Name the recorded IC50 for C=CC(=O)Nc1cc(Nc2ncc(C(F)(F)F)c(-n3nc(CC)c4cc(C#N)ccc43)n2)c(OC)cc1N(C)CCN(C)C .
Reply | 0.61 nM

Ask | Name the recorded IC50 for C=CC(=O)Nc1cc(Nc2nccc(-n3ncc4cc(OCCOC)ccc43)n2)c(OC)cc1N(C)CCN1CCCC1 .
Reply | 1.85 nM

Ask | Name the recorded IC50 for C=CC(=O)Nc1cc(Nc2ncc(Cl)c(-c3cn(C)c4ccccc34)n2)c(OC(F)F)cc1N(C)CCN(C)C .
Reply | 0.32 nM

----------
target: wild-type EGFR enzyme (Homo sapiens); experiment: Enzymologic experiment of wild-type (WT) EGFR (TR-FRET); type: biochemical; details: ATP 0.1 to 5 uM
measured_quantity: IC50 (nM)
Express it in nM; write the number only.

The following compounds have reported results that may help.
compound	unit_string	numeric_value
C=CC(=O)Nc1cc(Nc2nccc(-c3cn(C(C)=O)c4ccccc34)n2)c(OC(F)F)cc1N(C)CCN(C)C	nM	15.5
C=CC(=O)Nc1cc(Nc2nccc(-n3cnc4ccc(C#N)cc43)n2)c(OC)cc1N(C)CCN(C)C	nM	26.4

Ask | Form field: IC50 recorded for C=CC(=O)Nc1cc(Nc2ncc(C(F)(F)F)c(-n3nc(C)c4cc(OC)ccc43)n2)c(OC)cc1N(C)CCN(C)C with wild-type EGFR enzyme (Homo sapiens) (enter value)
Reply | 28

Ask | Form field: IC50 recorded for C=CC(=O)Nc1cc(Nc2nccc(-n3nc(C4CC4)c4ccccc43)n2)c(OC)cc1N(C)CCN(C)C [Example 44] with wild-type EGFR enzyme (Homo sapiens) (enter value)
Reply | 2.5

Ask | Form field: IC50 recorded for C=CC(=O)Nc1cc(Nc2nccc(-n3ncc4ccc(C#N)cc43)n2)c(OC)cc1N(C)CCN(C)C with wild-type EGFR enzyme (Homo sapiens) (enter value)
Reply | 46.9

Ask | Form field: IC50 recorded for C=CC(=O)Nc1cc(Nc2nccc(-n3nc(C)c4ccc(OC)cc43)n2)c(OC)cc1N(C)CCN1CCCC1 with wild-type EGFR enzyme (Homo sapiens) (enter value)
Reply | 12

Ask | Form field: IC50 recorded for C=CC(=O)Nc1cc(Nc2nccc(-c3cn(C4CC4)c4ccccc34)n2)c(OC)cc1N(C)CCN(C)C with wild-type EGFR enzyme (Homo sapiens) (enter value)
Reply | 1.89
